Target: T1, human Ly6E, N-terminal gD-tagged, stably expressed on PC3 cells (human, UniProt Q16553 21-101)
T1 construct: GPI-linked protein on cells; also called hu Ly6E; human Ly6E transfected PC3 cells; not shown: N-terminal gD tag of the retroviral vector
T1 sequence: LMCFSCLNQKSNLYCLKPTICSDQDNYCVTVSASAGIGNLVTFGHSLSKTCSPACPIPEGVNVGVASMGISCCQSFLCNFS
Assay: cell-based Ly6E competitive binding assay on human Ly6E PC3 cells; competitor mouse 9B12

BINDER	binding result
humanized 9B12 variant v8 (antibody, V domains shown, IgG. k1 graft 43+44 / VH3 graft; Residue change derived) VH: EVQLVESGGGLVQPGGSLRLSCAASGFSLTGYSVNWVRQAPGKGLEWVGMIWGDGSTDYNSALKSRFTISRDNSKNTLYLQMNSLRAEDTAVYYCARDYYFNYASWFAYWGQGTLVTVSS VL: DIQMTQSPSSLSASVGDRVTITCSASQGISNYLNWYQQKPGKTVKLLIYYTSNLHSGVPSRFSGSGSGTDFTLTISSLQPEDFATYYCQQYSELPWTFGQGTKVEIK	no binding
humanized 9B12 variant v11 (antibody, V domains shown, IgG. k1 graft 43+44+71 / VH2 graft + 49; Residue change derived) VH: EVQLVESGPALVKPTQTLTLTCTFSGFSLTGYSVNWIRQPPGKALEWLGMIWGDGSTDYNSALKSRLTISKDTSKNQVVLTMTNMDPVDTATYYCARDYYFNYASWFAYWGQGTLVTVSS VL: DIQMTQSPSSLSASVGDRVTITCSASQGISNYLNWYQQKPGKTVKLLIYYTSNLHSGVPSRFSGSGSGTDYTLTISSLQPEDFATYYCQQYSELPWTFGQGTKVEIK	no binding
humanized 9B12 variant v13 (antibody, V domains shown, IgG. k1 graft 43+44+71 / VH3 graft) VH: EVQLVESGGGLVQPGGSLRLSCAASGFSLTGYSVNWVRQAPGKGLEWVGMIWGDGSTDYNSALKSRFTISRDNSKNTLYLQMNSLRAEDTAVYYCARDYYFNYASWFAYWGQGTLVTVSS VL: DIQMTQSPSSLSASVGDRVTITCSASQGISNYLNWYQQKPGKTVKLLIYYTSNLHSGVPSRFSGSGSGTDYTLTISSLQPEDFATYYCQQYSELPWTFGQGTKVEIK	no binding
